protocol.conditions: buffer; pH 7.4; 200.0 µM
quantity.measured: solubility kinetic

# compound, result
records = [
    ("COc1ccccc1C1=NOC(COC(=O)c2ccc([N+](=O)[O-])cc2)C1 (configuration not stated)", "< 0.4 µg/mL"),
]

So what does the record say about solubility kinetic for COc1ccc(NC(=O)CS(=O)(=O)c2ccccc2)cc1 ?
> 45.8 µg/mL

Proceed to Cn1ccnc1COc1ccc(C=O)cc1
> 32.4 µg/mL

Proceed to NC(=O)C1CCN(CC(O)COCc2ccccc2Cl)CC1 (configuration not stated)
> 49 µg/mL

---

Overview of recorded solubility kinetic for various compounds
protocol.conditions: buffer; pH 7.4; 200.0 µM

Previously resolved entries follow.
# compound, solubility kinetic
data = [
    ("S=C1NCN(Cc2cccnc2)CN1c1cccc(Cl)c1", "> 47.8 µg/mL"),
    ("CN1CCN(CCC(=O)Nc2ccccc2)CC1", "> 37.1 µg/mL"),
    ("Cc1c(NC(=O)C(C)C)cccc1-c1nc2ncccc2o1", "> 44.3 µg/mL"),
    ("COc1ccccc1COC(=O)CN1C(=O)NC2(CCCCC2C)C1=O (configuration not stated)", "> 54.1 µg/mL"),
    ("O=C1CN(S(=O)(=O)c2ccccc2)c2ccccc2N1", "> 43.2 µg/mL"),
    ("Cc1onc(-c2ccccc2)c1C(=O)N1CCCCCC1", "> 42.7 µg/mL"),
]

So what does the record say about solubility kinetic for N/C(=N/O)c1cccn1Cc1ccccc1[N+](=O)[O-] ?
> 39 µg/mL

---

protocol.conditions: buffer; pH 7.4; 200.0 µM
Overview of recorded solubility kinetic for various molecules
Use µg/mL as the unit, but write only the number.

Previously resolved entries follow.
# molecule, recorded.number
records = [
    ("O=C(COC(=O)/C=C/c1ccccc1[N+](=O)[O-])Nc1ccc2[nH]c(=O)[nH]c2c1", 10),
    ("Clc1ccc(CN2CCN(c3ncccn3)CC2)cc1Cl", 13),
    ("CC(C)C(NC(=O)c1ccccc1F)C(=O)Nc1nccs1 (configuration not stated)", 48.2),
]

So what does the record say about solubility kinetic for CC(=O)c1ccc(N=C2C(=O)Nc3ccccc32)cc1 ?
36.6

Proceed to O=C1CN(C(=O)/C=C/c2ccc(Br)cc2)CCN1
41.8

Proceed to CCCn1c(N)c(C(=O)COC(=O)/C=C/c2ccc(OC(F)F)c(OC)c2)c(=O)[nH]c1=O
9

Proceed to COc1cccc(OC)c1C(=O)NC(C)CCc1ccccc1 (configuration not stated)
44.2

---

Overview of recorded log10(solubility kinetic) for various compounds
protocol.conditions: buffer; pH 7.4; 200.0 µM
Please be aware that the numbers have been log10-transformed from solubility kinetic in µg/mL.

So what does the record say about log10(solubility kinetic) for Cc1ccc(C2NC(=NCc3ccccc3)Nc3nc(C)cc(=O)n32)cc1 (centres undefined) ?
1.12

Proceed to Cc1cc(Cl)ccc1NC(=S)NC(C)(C)C
1.45

Proceed to COc1ccc(C(=O)Nc2ccccc2C(=O)Nc2cccnc2)cc1
0.94

Proceed to O=C(Nc1ccc(Cl)cc1)Nc1ccc(C(=O)N2CCOCC2)cc1
0.04

Proceed to CC(C)c1nc(NCCO)c(C#N)c2c1CCCC2
0.95

Proceed to CC(C)N(Cc1nc(-c2ccc3c(c2)OCO3)no1)CC1CCC(=O)N1 (centres undefined)
1.57

Proceed to COc1ccc(S(=O)(=O)Nc2cccnc2)c(Cl)c1Cl
1.33

---

protocol.conditions: buffer; pH 7.4; 200.0 µM
Overview of recorded solubility kinetic for various compounds

Previously resolved entries follow.
# compound, solubility kinetic
rows = [
    ("COc1ccc(S(=O)(=O)N2CCC(C(=O)NC3CC3)CC2)cc1", "> 50.8 µg/mL"),
    ("COc1ccc(C(CC(=O)O)N2C(=O)CCC2=O)cc1 (stereo not given)", "> 41.6 µg/mL"),
    ("CS(=O)(=O)N1CCc2cc(C(=O)N3CCCC3)ccc21", "> 44.2 µg/mL"),
    ("CCCC1CCC(c2ccc(/C(N)=N/O)cc2)CC1 (stereo not given)", "< 0.3 µg/mL"),
]

With those in mind, consider the next compound.
So what does the record say about solubility kinetic for Cc1nc2ccccn2c1C(=O)NNC(=O)Nc1ccccc1 ?
> 46.4 µg/mL

---

protocol.conditions: buffer; pH 7.4; 200.0 µM
quantity.measured: solubility kinetic (mg/mL)
Use mg/mL as the unit, but write only the number.

Previously resolved entries follow.
# smiles.representation, endpoint.unit, recorded.number
rows = [
    ("Cc1cc(Br)cc(Cl)c1OC(=O)c1ccncc1", "mg/mL", 0.0095),
    ("Cc1ccc(S(=O)(=O)CC(=O)Nc2nc3ccccc3s2)cc1", "mg/mL", 0.0013),
]

So what does the record say about solubility kinetic for CC(C)CCN(C(=O)c1ccccn1)c1c(N)n(Cc2ccccc2)c(=O)[nH]c1=O ?
0.0569

---

protocol.conditions: buffer; pH 7.4; 200.0 µM
quantity.measured: log10 solubility kinetic (log10 of the value in mg/mL)
Please be aware that the numbers have been log10-transformed from solubility kinetic in mg/mL.

Previously resolved entries follow.
# molecule, log10 solubility kinetic
data = [
    ("COC(=O)c1c(C)[nH]c(C=Nc2ccc(OC)cc2)c1C", -1.52),
    ("O=C(NC1CCCC1)c1cc(-c2ccc(Cl)cc2Cl)on1", -3.00),
    ("COc1ccccc1C(=O)NCCOc1ccc(C)c(C)c1", -1.37),
    ("CN(Cc1ccc(OC(F)F)cc1)C(=O)/C=C/c1ccc(S(=O)(=O)N2CCOCC2)cc1", -1.64),
    ("O=C(Nc1ccccc1)C1CC2CCC1C2 (centres undefined)", -1.50),
]

So what does the record say about log10 solubility kinetic for CCOc1ccc(Nc2cc(=O)[nH]c(=O)[nH]2)cc1 ?
-2.12

Proceed to CCOc1ccc(S(=O)(=O)NCCC(=O)OCC(=O)NC(=O)c2cccn2C)cc1
-1.65

Proceed to CCc1ccc(N=C2NC(=O)CS2)cc1
-1.49

Proceed to Cc1cc(C)cc(NC(=O)C(C)N2C(=O)c3ccccc3C2=O)c1 (centres undefined)
-1.84

Proceed to CSc1cccc(NS(=O)(=O)c2ccc(C(C)=O)cc2)c1
-1.39

Proceed to Cc1ccc(Nc2ccccc2N)cc1
-1.64

Proceed to Cc1ccc(N(CC(=O)Nc2c(C)cccc2C)S(C)(=O)=O)cc1
-1.45

Proceed to Cc1ccc(-c2csc3nc(C(C)C)oc(=O)c23)c(C)c1
-2.41

Proceed to CCOc1ccc(C(=O)N2CCN(c3cccc(Cl)c3)CC2)cc1
-1.84

Proceed to OC1/C(=C/c2ccc(Cl)cc2Cl)N2CCC1CC2 (centres undefined)
-1.55

Proceed to O=[N+]([O-])c1ccc(N2CCCCC2)nc1N1CCCCC1
-2.28

Proceed to O=C1C2C3C=CC(C4CC34)C2C(=O)N1c1cc(Cl)ccn1 (centres undefined)
-1.37

Proceed to O=C1c2cc([N+](=O)[O-])ccc2-c2ncccc21
-2.13

Proceed to O=C(COC(=O)c1cccnc1Cl)Nc1ccc(S(=O)(=O)N2CCOCC2)cc1
-1.24

Proceed to Cc1ccccc1OCC(=O)Nc1nc(-c2ccncc2)cs1
-2.31

Proceed to COc1ccc(NC(=O)C(Cc2cc(C)cc(C)c2)C(C)C(=O)O)cc1 (centres undefined)
-1.44

---

protocol.conditions: buffer; pH 7.4; 200.0 µM
Overview of recorded solubility kinetic for various compounds
Use mg/mL as the unit, but write only the number.

Previously resolved entries follow.
# smiles.representation, endpoint.unit, solubility kinetic
records = [
    ("COc1ccc2[nH]c(C(=O)NCc3ccc4c(c3)OCO4)cc2c1", "mg/mL", 0.0011),
    ("COc1ccc2c(c1OC)C(=O)N(c1ccc(O)cc1)C2", "mg/mL", 0.0063),
    ("O=C(Nc1ccccc1Oc1ccccc1)c1cccs1", "mg/mL", 0.0152),
]

So what does the record say about solubility kinetic for O=C(NCCSCc1ccc(Cl)cc1)c1cccs1 ?
0.0215

Proceed to N#Cc1ccccc1CSc1nc(N)cc(N)n1
0.0366

Proceed to Cc1cccc(NC(=S)NC2CCCC2)c1C
0.0341

Proceed to CC(=O)c1c(C)[nH]c(C(=O)OCCOc2ccccc2)c1C
0.0013

Proceed to CSc1nsc(SCC(=O)Nc2ccc(OC(C)=O)cc2)n1
0.0028

Proceed to Cc1ccc(N/C=C2\CCCCC2=O)nc1
0.0316

Proceed to Cc1cc(Oc2ccc(N)cn2)cc(C)c1Cl
0.0276

Proceed to C=CCN1CCN(C(=O)c2ccc(-c3ccccc3)cc2)CC1
0.0323

Proceed to CCOc1ccc(C2=CSC3=NCCN23)cc1[N+](=O)[O-]
0.0362
